Measured LD50 at 336 h accompanies every entry in the list below.
Test: Acute toxicity in mice
Set-up: species or system mouse (ddY strain)
Details: mouse, in vivo, ip; intraperitoneally once, ddY mice, 14 days observation, Beherns Kaerber's method
Respond numerically; units are mg/kg and should not be typed.

Fill in the blank: the reported LD50 at 336 h of CC1=C(N=CN(C)C)C(=O)C2=C(C1=O)N1C[C@H]3[C@H](N3C)[C@]1(O)[C@H]2COC(=O)N=CN(C)C (stereo partly drawn) is ____. 26.3

Fill in the blank: the reported LD50 at 336 h of CC1=C(N=CN(C)C)C(=O)C2=C(C1=O)N1C[C@H]3[C@H](N3C)[C@]1(O)[C@H]2COC(N)=O (stereo partly drawn) is ____. 8.3

Fill in the blank: the reported LD50 at 336 h of CC1=C(N=CN(C)C)C(=O)C2=C(C1=O)N1C[C@H]3[C@H](N3C)[C@]1(O)[C@@H]2COC(N)=O (stereo partly drawn) is ____. 9.4
